Readings of inhibition at 50 µM for the listed compounds
biological target: Solute carrier family 22 member 12 (Homo sapiens, UniProt Q96S37); assay: Inhibition of human URAT1 expressed in xenopus oocyte assessed as inhibition of [14C]-labelled urate uptake at 50 uM after 60 mins by liquid scintillation counting; details: 1 h
Sequence (Q96S37 whole entry): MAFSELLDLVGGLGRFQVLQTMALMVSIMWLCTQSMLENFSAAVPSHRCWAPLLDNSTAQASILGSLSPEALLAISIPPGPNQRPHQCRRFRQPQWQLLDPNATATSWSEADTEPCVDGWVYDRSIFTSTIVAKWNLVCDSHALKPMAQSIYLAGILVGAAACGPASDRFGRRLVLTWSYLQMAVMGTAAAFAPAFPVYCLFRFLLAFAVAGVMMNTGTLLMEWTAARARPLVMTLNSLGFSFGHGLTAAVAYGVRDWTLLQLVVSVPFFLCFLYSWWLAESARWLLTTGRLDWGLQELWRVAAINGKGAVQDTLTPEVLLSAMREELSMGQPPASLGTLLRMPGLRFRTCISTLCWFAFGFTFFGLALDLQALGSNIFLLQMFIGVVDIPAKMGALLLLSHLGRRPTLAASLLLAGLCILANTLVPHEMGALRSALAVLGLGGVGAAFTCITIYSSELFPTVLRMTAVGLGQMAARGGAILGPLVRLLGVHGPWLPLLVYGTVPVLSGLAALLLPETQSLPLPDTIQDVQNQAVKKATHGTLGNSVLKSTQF

{"molecule_smiles": "CCc1oc2cc(O)ccc2c1C(=O)c1cc(Br)c(O)c(Br)c1", "inhibition at 50 µM (%)": 99.8}
{"molecule_smiles": "CCc1cc2c(C(=O)c3cc(Br)c(O)c(Br)c3)c(OC)ccc2o1", "inhibition at 50 µM (%)": 99.6}
{"molecule_smiles": "CCc1cc2cc(OC)cc(C(=O)c3cc(Br)c(O)c(Br)c3)c2o1", "inhibition at 50 µM (%)": 99}
{"molecule_smiles": "CCCN(CCC)S(=O)(=O)c1ccc(C(=O)O)cc1", "inhibition at 50 µM (%)": 35.7}
{"molecule_smiles": "CCc1oc2cc(OC)ccc2c1C(=O)c1ccc(OC)cc1", "inhibition at 50 µM (%)": 6.2}
{"molecule_smiles": "CCc1cc2cc(O)cc(C(=O)c3ccc(O)cc3)c2o1", "inhibition at 50 µM (%)": 41}

###

Readings of inhibition at 50 µM for the listed molecules
target: Solute carrier family 22 member 12 (Homo sapiens, UniProt Q96S37); test: Inhibition of human URAT1 expressed in xenopus oocyte assessed as inhibition of [14C]-labelled urate uptake at 50 uM after 60 mins by liquid scintillation counting; settings: 1 h

{"molecule": "CCc1oc2ccc(O)cc2c1C(=O)c1cc(Br)c(O)c(Br)c1", "inhibition at 50 µM, %": 99.9}
{"molecule": "CCc1oc2ccc(OC)cc2c1C(=O)c1ccc(O)cc1", "inhibition at 50 µM, %": 92.7}
{"molecule": "CCc1cc2c(C(=O)c3ccc(OC)cc3)ccc(O)c2o1", "inhibition at 50 µM, %": 0.8}
{"molecule": "CCc1cc2c(C(=O)c3ccc(OC)cc3)cc(OC)cc2o1", "inhibition at 50 µM, %": 1.5}
{"molecule": "CCc1oc2ccccc2c1C(=O)c1ccc(OC)cc1", "inhibition at 50 µM, %": 13.3}
{"molecule": "CCc1cc2c(C(=O)c3ccc(OC)cc3)ccc(OC)c2o1", "inhibition at 50 µM, %": 7.4}
{"molecule": "CCc1cc2cc(OC)cc(C(=O)c3ccc(OC)cc3)c2o1", "inhibition at 50 µM, %": 5.2}
{"molecule": "CCc1cc2cc(OC)cc(C(=O)c3ccc(O)cc3)c2o1", "inhibition at 50 µM, %": 60}
{"molecule": "CCc1oc2ccc(O)cc2c1C(=O)c1ccc(OC)cc1", "inhibition at 50 µM, %": 12.9}
{"molecule": "CCc1cc2c(C(=O)c3cc(Br)c(O)c(Br)c3)c(O)ccc2o1", "inhibition at 50 µM, %": 99.9}
{"molecule": "CCc1cc2c(C(=O)c3ccc(O)cc3)c(O)ccc2o1", "inhibition at 50 µM, %": 51.5}
{"molecule": "CCc1oc2cc(OC)ccc2c1C(=O)c1ccc(O)cc1", "inhibition at 50 µM, %": 92.7}
{"molecule": "CCc1cc2cc(O)cc(C(=O)c3ccc(OC)cc3)c2o1", "inhibition at 50 µM, %": 9.3}
{"molecule": "CCc1cc2c(C(=O)c3ccc(O)cc3)cc(O)cc2o1", "inhibition at 50 µM, %": 41}
{"molecule": "CCc1cc2c(C(=O)c3ccc(OC)cc3)cc(O)cc2o1", "inhibition at 50 µM, %": 12.4}
{"molecule": "CCc1oc2cc(O)ccc2c1C(=O)c1ccc(OC)cc1", "inhibition at 50 µM, %": 48.3}
{"molecule": "CCc1oc2ccccc2c1C(=O)c1ccc(O)cc1 [BENZARONE]", "inhibition at 50 µM, %": 90.8}
{"molecule": "CCc1oc2ccc(OC)cc2c1C(=O)c1ccc(OC)cc1", "inhibition at 50 µM, %": 24.3}
{"molecule": "CCc1cc2c(C(=O)c3ccc(O)cc3)ccc(O)c2o1", "inhibition at 50 µM, %": 93.8}
{"molecule": "CCc1oc2cc(OC)ccc2c1C(=O)c1cc(Br)c(O)c(Br)c1", "inhibition at 50 µM, %": 99.9}
{"molecule": "CCc1cc2c(C(=O)c3ccc(OC)cc3)c(OC)ccc2o1", "inhibition at 50 µM, %": 6.1}
{"molecule": "CCc1oc2c(O)cccc2c1C(=O)c1ccc(OC)cc1", "inhibition at 50 µM, %": 18.2}
{"molecule": "CCc1cc2cc(O)cc(C(=O)c3cc(Br)c(O)c(Br)c3)c2o1", "inhibition at 50 µM, %": 99.8}
{"molecule": "CCc1cc2c(C(=O)c3ccc(OC)cc3)cc(Br)c(O)c2o1", "inhibition at 50 µM, %": 99.3}
